The entries below come with measured Anti-CD28 Fab signal values attached.
- system_tested: Anti-CD28 Fab (SEQ ID NOs: 202, 203)
- Sequence (VH, as listed by the source, chain 1 of 2): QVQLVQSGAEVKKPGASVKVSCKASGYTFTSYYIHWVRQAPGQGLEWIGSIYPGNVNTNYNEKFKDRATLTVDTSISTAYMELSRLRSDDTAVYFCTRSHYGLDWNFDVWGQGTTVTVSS
- Sequence (VL, as listed by the source, chain 2 of 2): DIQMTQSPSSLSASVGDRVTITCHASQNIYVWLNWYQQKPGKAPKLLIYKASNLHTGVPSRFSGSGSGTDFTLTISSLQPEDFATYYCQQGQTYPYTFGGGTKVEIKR
- test_name: phage binding ELISA on captured Fab;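 further: clonal phage supernatants added briefly to wells pre-incubated with CD28 antigen or with blocking buffer only, then washed, bound phage read by ELISA using HRP-coupled anti-M13 antibody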
recorded_metric: Anti-CD28 Fab signal

[[record]]
binder = "YCEGHSPEYILKCL [Phage-25]"
quantitative_result = 1.75

[[record]]
binder = "YCEGHLPEYMQKCM [Phage-136]"
quantitative_result = 2.23

[[record]]
binder = "YCAGHMPEYMAKCL [Phage-65]"
quantitative_result = 2.38

[[record]]
binder = "YCEGHLPEYLEKCV [Phage-41]"
quantitative_result = 2.11

[[record]]
binder = "YCEGHLPEYIWKCL [Phage-43]"
quantitative_result = 2.32

[[record]]
binder = "YCDGHSPEYMWKCL [Phage-49]"
quantitative_result = 2.44

[[record]]
binder = "WCWDYKLWVPTQCP [Phage-7]"
quantitative_result = 2.27

[[record]]
binder = "YCDGHAPEYMEKCM [Phage-148]"
quantitative_result = 2.21

